Each entry below lists one item and its recorded selectivity ratio value.
- Experiment Summary: Selectivity index, ratio of CC50 for human MT4 cells to EC50 for HIV 1 NL4-3
- Assay type: toxicity, cell-based
- Recorded Conditions: read-out: Ratio CC50/EC50
Parameter Measured: selectivity ratio

INSERT INTO assay_data (compound, parameter_measured, reported) VALUES
  ('Cc1c(Cl)nc(Nc2ccc(C#N)cc2)nc1Cc1c(F)cccc1F', 'selectivity ratio', '> 125'),
  ('N#Cc1ccc(Nc2nc(Cc3c(F)cccc3F)cc(=O)[nH]2)cc1', 'selectivity ratio', '> 7.3'),
  ('Cc1cnc(Nc2ccc(C#N)cc2)nc1C(C)c1c(F)cccc1F (centres undefined)', 'selectivity ratio', 119000),
  ('CC(c1cc(N)nc(Nc2ccc(C#N)cc2)n1)c1c(F)cccc1F (centres undefined)', 'selectivity ratio', 154000);
